Conditions: buffer; pH 7.4; 200.0 µM
Please use the following solubility kinetic ranges when assigning a class: small value (below 4 µg/mL), mid value (4 µg/mL to below 20 µg/mL), large value (20 µg/mL or more)

Look over these answered cases.
1) O=[N+]([O-])c1ccccc1OCc1nc(-c2cccs2)no1 :: small value
2) Cc1cc(Cl)ccc1NC(=S)NC1CCCC1 :: mid value

(Q) Would you mind sorting `CC(C)Oc1ncnc2c1[nH]c1ccccc12` into the appropriate category?
(A) mid value

(Q) Request: `CCOC(=O)c1ccccc1NC(=O)CSc1nc2ccccc2c(=O)n1CCCN1CCOCC1`
(A) mid value

(Q) What do you get for `CN(C)c1ccc(NC(=O)C(=O)NCCOc2ccccc2)cc1` ?
(A) small value
